Sourced from patent US20240092836A1

# measuredTarget: Recombinant Human CTLA4-Fc chimera (R&D systems) (human) (UniProt P16410)
# testDetails: ELISA, signal over SA
Use true (1) when the recorded ELISA S/N(SA) is no lower than 10; use false (0) when it is lower.

binder	labelValue
GGCWHPFLPISSPHFCGR (peptide, not shown: large carriers; small tags and cut ends) [C4m#19-5th4w-NN6-65-1]	true (1)

Problem: Could you verify whether the entry GGCRHPFLPIWSWHFCPF (peptide, not shown: large carriers; small tags and cut ends) [C4m#19-5th4w-NN6-7] shows ELISA S/N(SA) of no less than 10?
Result: true (1)
